Overview of recorded growth inhibition for various molecules
assay: NCI Yeast Anticancer Drug Screen. Data for the bub3 strain (AID 167); details: S. cerevisiae bub3 mutant strain, at 50.0 µM, hits give high values
The panel holds about 79,000 compounds, 15% with a hit somewhere; the sample as a whole holds those more often.
Lab book: enter the figure in %, no units written.

CN1C(=O)C(=CN(C)c2ccccc2)C(=O)N(C)C1=O    4.4
Oc1ccccc1C=NC1CCCCC1.Oc1ccccc1C=NC1CCCCC1.[Ni+2]    -0.1
O=S(=O)(F)c1ccccc1    2.1

Look up growth inhibition: `COc1cc2c(cc1OC)-c1c3c(cc4c1[C@H](C2)N(C)CC4)OCO3`
-14.2

Give the measured growth inhibition of `Cc1ccc([P+](=O)O)cc1Cl` .
1.65

I would be grateful if you could share the reported growth inhibition for CC(NC(=O)c1ccccc1)N(C)[N+](=O)[O-] (stereo unspecified) .
5.45

* * *

experiment: NCI Yeast Anticancer Drug Screen. Data for the cln2 rad14 strain (AID 165);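 also: 0% = growth equal to vehicle treated cultures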; details: S. cerevisiae cln2 rad14 strain, at 50.0 µM, hits give high values
This is part of a sample that, as a whole, favours compounds with a hit. Of some 79,000 tested, about 15% had one in any assay.
Reported growth inhibition values are given for each entry in this list.
Form entry: value (%) — number only.

[O-][Cl+3]([O-])([O-])O.[O-][n+]1c2ccccc2nc2ccccc21.[Zn+2]    14.8
[O-][Cl+3]([O-])([O-])[O-].[O]=[Ru]=[O].c1ccc(-c2ccccn2)nc1.c1ccc(-c2ccccn2)nc1    14.2
Nc1c([N+](=O)[O-])cncc1[N+](=O)[O-]    -40.6
O=S(=O)(F)c1ccccc1    -59.8
CCN1CCOC(CC)(c2cc(Cl)cc(Cl)c2Cl)C1 (configuration not stated)    13.2
CN1C(=O)N(C)C(O)C(Cl)(Cl)C1=O (configuration not stated)    30.6

Now consider the entry below.
Form field: reported growth inhibition of `S=C(N=Nc1ccccc1)NNc1ccccc1.[Ni]`
6.25

* * *

assay: NCI Yeast Anticancer Drug Screen. Data for the cln2 rad14 strain (AID 165);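 also: 0% = growth equal to vehicle treated cultures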; conditions: S. cerevisiae cln2 rad14 strain, at 50.0 µM, hits give high values
The panel holds about 79,000 compounds, 15% with a hit somewhere; the sample as a whole holds those more often.
Some compounds, each annotated with its measured growth inhibition.
Response body: numeric value in %, unit text excluded.

CC(NC(=O)c1c(O)[nH]c(=S)[nH]c1=O)c1ccc([N+](=O)[O-])cc1 (stereo not given)    19.4
CCCCOP(=O)(O)SP(=O)(O)OCCCC    20.9
Cc1cc(C)c(O)c(CN2CCCCC2)c1    -4
CCN(CC)CCn1c(=O)n(C)c2ccccc21    -35
CCC[As](=O)(O)CC[As](=O)(O)CCC    -3.05

Next up:
Any idea what growth inhibition was measured for CCOC12CC3C4=CCOC5CC(=O)N6c7ccccc7C1(CCN2C4)C6C53 (stereo not given) ?
18.9

* * *

assay: NCI Yeast Anticancer Drug Screen. Data for the bub3 strain (AID 167); details: S. cerevisiae bub3 mutant strain, at 50.0 µM, hits give high values
The panel holds about 79,000 compounds, 15% with a hit somewhere; the sample as a whole holds those more often.
Readings of growth inhibition for the listed molecules
Give the value in % but do not write % after it.

The examples below pair each entry with its known result.
O=C1CC=C2C3CC4N(CCC45c4ccccc4N1C25)C/C3=C\CO (stereo not given)    37
Cc1ccc2c3c(c(=O)oc2c1)[C@H](C)C[C@@](C)(CO)O3    3.7
Oc1c(Cl)cc(Cl)cc1C1N(Cc2ccc(N(CCCl)CCCl)cc2Cl)CCCN1Cc1ccc(N(CCCl)CCCl)cc1Cl    -4

Endpoint output: growth inhibition of `BrP(Br)(c1ccccc1)(c1ccccc1)c1ccccc1` . Value?
10.7

Give the measured growth inhibition of `Cc1ccc(P(=O)(O)O)cc1` .
-2.2

Could you tell me which growth inhibition is on file for `O=[As](O)(O)c1cccc(O)c1` ?
9.25

Data provenance: PubChem BioAssay (NCI)
